Where these numbers come from: ChEMBL document CHEMBL1124755

Quick list: pIC50 per entry.
Assayed System: Glutamate NMDA receptor
Test: Evaluated for its affinity to bind ion channel binding sites (phencyclidine or PCP receptor) on the N-methyl-D-aspartate glutamate receptor in rat brain membrane using [3H]MK-801 as radioligand
Format: cell membranes
pIC50: −log10 of the molar value.
Test Readout: pIC50

• C[C@@]12N[C@@](C)(c3ccccc31)C(O)c1ccccc12 (mixture of isomers; 13) = 7.19
• CC12Cc3ccccc3[C@@H](O)C(CN1)c1ccccc12 (mixture of isomers) = 6.02
• C[C@@]12Cc3ccccc3C(CN1)[C@@H](O)c1ccccc12 (mixture of isomers) = 5.09
• C[C@@]12N[C@@](C)(c3ccccc31)C(O)c1ccccc12 (mixture of isomers; 14) = 5.18
